MEASURED ON: Farnesyl pyrophosphate synthase (Homo sapiens, UniProt P14324)
Sequence (P14324 whole entry): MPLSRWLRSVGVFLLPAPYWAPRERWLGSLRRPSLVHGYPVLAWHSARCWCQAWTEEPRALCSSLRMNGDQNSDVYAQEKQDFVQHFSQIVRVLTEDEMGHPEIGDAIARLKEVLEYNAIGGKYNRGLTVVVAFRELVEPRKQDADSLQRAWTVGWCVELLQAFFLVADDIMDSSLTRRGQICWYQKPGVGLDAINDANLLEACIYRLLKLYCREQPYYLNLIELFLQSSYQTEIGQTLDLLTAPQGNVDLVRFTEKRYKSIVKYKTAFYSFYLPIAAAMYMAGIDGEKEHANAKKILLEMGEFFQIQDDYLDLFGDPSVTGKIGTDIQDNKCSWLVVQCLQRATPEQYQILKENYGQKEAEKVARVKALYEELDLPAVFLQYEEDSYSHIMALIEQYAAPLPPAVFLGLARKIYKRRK
EXPERIMENT: Inhibition of N-terminal His-tagged human recombinant FPPS expressed in Escherichia coli BL21 (DE3) using GPP and [3H]-IPP as substrate preincubated for 10 mins before substrate addition measured after 8 mins by liquid scintillation counting
PROPERTY MEASURED: pIC50
# log scale: pIC50 equals minus log10 of the concentration in mol/L

[in] I would be grateful if you could share the reported pIC50 for COc1cc(C)c(F)cc1-c1cc2c(NCP(=O)(O)O)ncnc2s1 .
[out] 5.34

[in] I would be grateful if you could share the reported pIC50 for Cc1ccc(-c2cc3c(NC(Cc4cccc(F)c4)P(=O)(O)O)ncnc3s2)cc1 (stereo not given) .
[out] 5.96

[in] I would be grateful if you could share the reported pIC50 for Cc1ccc(-c2cc3c(N[C@@H](Cc4ccccc4)P(=O)(O)O)ncnc3s2)cc1 .
[out] 5.40

[in] I would be grateful if you could share the reported pIC50 for COc1cc(C)c(Cl)cc1-c1cc2c(NC(c3ccccc3)P(=O)(O)O)ncnc2s1 (stereo not given) .
[out] 5.08
